Provenance of the data: ChEMBL document CHEMBL1149292

Target: Sphingosine 1-phosphate receptor 4 (Homo sapiens, UniProt O95977)
Sequence (O95977 whole entry): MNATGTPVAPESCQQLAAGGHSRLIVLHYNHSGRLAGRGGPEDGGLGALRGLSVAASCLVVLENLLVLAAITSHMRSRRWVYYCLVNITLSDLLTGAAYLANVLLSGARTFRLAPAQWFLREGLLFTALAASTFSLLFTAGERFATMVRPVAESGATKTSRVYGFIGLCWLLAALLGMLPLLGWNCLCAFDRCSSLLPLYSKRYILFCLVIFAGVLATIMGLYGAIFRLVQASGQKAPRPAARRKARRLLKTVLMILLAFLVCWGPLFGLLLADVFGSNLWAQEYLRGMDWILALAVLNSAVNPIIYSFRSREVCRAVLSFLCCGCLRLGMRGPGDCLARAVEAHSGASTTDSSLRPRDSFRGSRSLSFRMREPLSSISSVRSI
Experiment: Displacement of [33P]sphingosine 1 phosphate from human S1P4 receptor expressed in CHO cells
Assay type: cell-based
Below, each entry is listed alongside its reported IC50.

smilesStr: O=C(O)C1CN(Cc2ccc(OCc3cc(-c4ccccc4)c(C(F)(F)F)s3)c(C(F)(F)F)c2)C1
result: 0.34 µM (antagonist)
--
smilesStr: O=C(O)C1CN(Cc2ccc(-c3noc(-c4cc(-c5ccccc5)c(C(F)(F)F)s4)n3)cc2)C1
result: 10 µM
--
smilesStr: O=C(O)C1CN(Cc2cc(Cl)c(OCc3cc(-c4ccccc4)c(C(F)(F)F)s3)c(Cl)c2)C1
result: 0.64 µM (antagonist)
--
smilesStr: FC(F)(F)c1sc(-c2nc(-c3ccc(Cl)cc3Cl)no2)cc1-c1ccccc1
result: > 10 µM
--
smilesStr: CCCCCCCCc1ccc(CCC(N)(CO)CO)cc1
result: > 10 µM

I have this compound here, CCc1cc(CN2CC(C(=O)O)C2)ccc1OCc1cc(-c2ccccc2)c(C(F)(F)F)s1 , and I need its recorded IC50.
> 10 µM

I have this compound here, Cc1cc(CN2CC(C(=O)O)C2)cc(C)c1OCc1cc(-c2ccccc2)c(C(F)(F)F)s1 , and I need its recorded IC50.
0.12 µM (antagonist)

I have this compound here, O=C(O)C1CN(Cc2ccc(OCc3cc(-c4ccccc4)c(C(F)(F)F)s3)c(Cl)c2)C1 , and I need its recorded IC50.
1.3 µM (antagonist)

I have this compound here, CCCCCCCCCc1ccc(CN2CC(C(=O)O)C2)cc1 , and I need its recorded IC50.
5.4 µM (antagonist)

----------
Assay: Half life in Beagle dog at 1 mg/kg, po and 0.5 mg/kg, iv
Conditions: in vivo
measuredMetric: half-life (h)
A number alone suffices; assume h.

smilesStr: O=C(O)C1CN(Cc2ccc(OCc3cc(-c4ccccc4)c(C(F)(F)F)s3)cc2)C1
quantitativeResult: 9.7

Lab note: next compound to report on.
I have this compound here, Cc1cc(CN2CC(C(=O)O)C2)ccc1OCc1cc(-c2ccccc2)c(C(F)(F)F)s1 , and I need its recorded half-life.
22.3

----------
Assay: Plasma clearance in rat at 2 mg/kg, po and 1 mg/kg, iv
Format: ADME, organism-based
measuredMetric: clearance
Please answer in the form of a number followed by its unit of measurement.

Example entries and their recorded answers appear below.
smilesStr: O=C(O)C1CN(Cc2ccc(-c3noc(-c4cc(-c5ccccc5)c(C(F)(F)F)s4)n3)cc2)C1
clearance: 2.2 mL/min/kg
--
smilesStr: O=C(O)C1CN(Cc2ccc(OCc3cc(-c4ccccc4)c(C(F)(F)F)s3)c(Cl)c2)C1
clearance: 8.2 mL/min/kg
--
smilesStr: Cc1cc(CN2CC(C(=O)O)C2)ccc1OCc1cc(-c2ccccc2)c(C(F)(F)F)s1
clearance: 8.2 mL/min/kg

Lab note: next molecule to report on.
I have this molecule here, O=C(O)C1CN(Cc2ccc(OCc3cc(-c4ccccc4)c(C(F)(F)F)s3)cc2)C1 , and I need its recorded clearance.
12.3 mL/min/kg

----------
Test: Plasma concentration in femoral artery cannulated Lewis rat at 3 mg/kg, po after 32 hrs
Type: ADME, organism-based
Design: dose 3 mg/kg, route oral
measuredMetric: concentration at 32 h
Please answer in the form of a number followed by its unit of measurement.

I have this compound here, O=C(O)C1CN(Cc2ccc(OCc3cc(-c4ccccc4)c(C(F)(F)F)s3)cc2)C1 , and I need its recorded concentration at 32 h.
34 nM
